- System: Plasmodium berghei
- protocol-text: Screen against P. berghei liver stage (PbLuc), transformed with Luciferase, at 10uM
- Type: functional, HepG2
- assay-setup: tested at 10 uM
About 8,600 (12%) of roughly 69,000 compounds showed an effect of 50% or more. The full list was thinned out, with strong results kept by preference.
property-name: INHIBITION (%)
Numeric answer only, unit % assumed.

molecule	INHIBITION (%)
O=C1NC2(Cc3ccccc31)CN(CC1CCNCC1)C2	26.7
c1cnc(N2CCO[C@H]3CN(CC4CCC4)C[C@H]32)cn1	62
CNC(=O)c1ccc(CNC(=O)c2ccc(Cl)cc2F)cc1	-8.675

**Q:** Please supply the value of reported INHIBITION for the item CCOc1ccc(Cl)c(C(=O)NCc2ccc(C(=O)NC)cc2)n1
**A:** 14.7

**Q:** Please supply the value of reported INHIBITION for the item CC(C)N(C)C(=O)c1ccc(CNc2ncc(C#N)cc2Cl)cc1
**A:** 44.5

**Q:** Please supply the value of reported INHIBITION for the item Fc1cnc(N2CCO[C@H]3CN(CC4CCOC4)C[C@H]32)nc1 (stereo partly specified)
**A:** 43.1

**Q:** Please supply the value of reported INHIBITION for the item CC(C)N(C)C(=O)c1ccc(CNc2ccncc2Cl)cc1
**A:** 97.1

**Q:** Please supply the value of reported INHIBITION for the item CNC(=O)c1ccc(CNc2ccncc2Cl)cc1
**A:** 57.7

**Q:** Please supply the value of reported INHIBITION for the item c1cncc(N2CCO[C@H]3CN(CC4CCOC4)C[C@H]32)c1 (stereo partly specified)
**A:** 62

**Q:** Please supply the value of reported INHIBITION for the item O=c1[nH]c2cn(-c3ccc(F)cc3)c(=O)n2n1Cc1cccc(Cl)c1
**A:** 9.48

**Q:** Please supply the value of reported INHIBITION for the item CC(C)N(C)C(=O)c1ccc(CNc2cncc(Cl)n2)cc1
**A:** 32.9
